tested on: HT-29; test: Antiproliferative activity against human HT-29 cells after 96 hrs by MTT assay; type: functional, cell-based; conditions: HT-29, 96 h
observation.type: pIC50
One number for each entry, as −log10 of the molar value.

Prompt line: Param item = CC(C)(C)c1cc2nc(-c3cc(Cl)c(O)cc3O)sc(=O)c2s1 ; retrieve measured pIC50.
Response line: 4.41
